Test system: UACC-257 melanoma
experimentSummary: NCI tumour cell line growth inhibition, 48 h
Some compounds, each annotated with its measured TGI.
# unit: µM | format: bare number

>  <compound>
CCCCCCCCCC(=O)NC(CCC(=O)N(CCNC(=O)c1nc(-c2ccccc2)oc1-c1ccccc1)Cc1ccccc1)C(=O)O (stereo not given)

>  <recordedMetric>
TGI

>  <experimentalValue>
54.7

$$$$

Field: next compound
What value of TGI has been reported for the following compound? NNC(=O)c1cc([N+](=O)[O-])ccc1NC(=O)C12CC3CC(CC(C3)C1)C2
59.3

###

Test system: CAKI-1 renal
experimentSummary: NCI tumour cell line growth inhibition, 48 h; in the data active = GI50 below about 0.43 µM; inactive = the rest
Pick from active, inactive when you respond.

For orientation, consider the following solved cases.
>  <smi>
COc1ccc2c(CCCc3ccc(Cl)cc3Cl)c3[n+](cc2c1OC)CCc1cc2c(cc1-3)OCO2

>  <testedTarget>
CAKI-1 renal

>  <classLabel>
inactive

$$$$
>  <smi>
CCC[CH2][Sn]([CH2]CCC)([O]C(=O)c1cc(F)ccc1F)[O]C(=O)c1cc(F)ccc1F

>  <testedTarget>
CAKI-1 renal

>  <classLabel>
inactive

$$$$
>  <smi>
c1csc(-c2ccc(CNc3c4ccccc4nc4ccccc34)cc2)c1

>  <testedTarget>
CAKI-1 renal

>  <classLabel>
inactive

$$$$

# ---- query molecule ----
In this assay, the call recorded for CC1=CC(C)(C)Nc2ccc(Cc3ccc4c(c3)C(C)=CC(C)(C)N4)cc21 was what?
inactive

Hello, the source for this data is PubChem BioAssay (NCI), in case you need it.
